target: human recombinant MAO-B (Homo sapiens, UniProt P27338); construct: purchased Sigma-Aldrich Química S.A., Alcobendas, Spain; host or cells: insect cells (BTI-TN-5B1-4) infected with recombinant baculovirus; test: Determination of MAO isoforms activity (Amplex Red, p-tyramine), MAO-B; type: biochemical; details: read-out: IC50 hMAO-B
QUANTITY_NAME: IC50

{"COMPOUND_STRUCTURE": "O=C(c1ccccc1)N1CCN(C(=S)SCc2ccnn(Cc3ccccc3)c2=O)CC1", "IC50": "> 100 µM"}
{"COMPOUND_STRUCTURE": "Cc1cc(=O)n(C)nc1CSC(=S)N1CCCC1", "IC50": "> 1000 µM"}

IC50 for human recombinant MAO-B (Homo sapiens, UniProt P27338) with input O=C(c1ccccc1)N1CCN(C(=S)SCc2cnn(Cc3ccccc3)c(=O)c2)CC1 equals > 100 µM

###

# key: entry, value: S.I. Selectivity index hMAO-B = IC50 (hMAO-A)/IC50 (hMAO-B)
molecular target: human recombinant MAO-B (Homo sapiens); construct: purchased Sigma-Aldrich Química S.A., Alcobendas, Spain; host or cells: insect cells (BTI-TN-5B1-4) infected with recombinant baculovirus; test: Determination of MAO isoforms activity (Amplex Red, p-tyramine), MAO-B; format: biochemical; settings: bounds calculated taking the highest concentration studied (100 μM or 1 mM) as IC50
// return just the number, without any unit appended

Worked examples follow.
{"COMPOUND_STRUCTURE": "Cc1cc(=O)n(C)nc1CSC(=S)N1CCCCC1", "EXPERIMENTAL_SYSTEM": "human recombinant MAO-B (Homo sapiens)", "QUANTITATIVE_RESULT": 13.4}
{"COMPOUND_STRUCTURE": "Cc1cc(=O)n(C)nc1CSC(=S)N1CCN(C(=O)c2ccccc2)CC1", "EXPERIMENTAL_SYSTEM": "human recombinant MAO-B (Homo sapiens)", "QUANTITATIVE_RESULT": 2.2}
{"COMPOUND_STRUCTURE": "Cc1cc(=O)n(C)nc1CSC(=S)N1CCOCC1", "EXPERIMENTAL_SYSTEM": "human recombinant MAO-B (Homo sapiens)", "QUANTITATIVE_RESULT": 2.6}

Alright, here's another compound for you.
// O=c1cc(CSC(=S)N2CCCC2)cnn1Cc1ccccc1 : S.I. Selectivity index hMAO-B = IC50 (hMAO-A)/IC50 (hMAO-B) value = 10.3

###

Listing of entries alongside the reported S.I. Selectivity index hMAO-B = IC50 (hMAO-A)/IC50 (hMAO-B).
Biological target: human recombinant MAO-B (Homo sapiens, UniProt P27338)
Construct: purchased Sigma-Aldrich Química S.A., Alcobendas, Spain; host or cells: insect cells (BTI-TN-5B1-4) infected with recombinant baculovirus
Sequence (P27338 1-520): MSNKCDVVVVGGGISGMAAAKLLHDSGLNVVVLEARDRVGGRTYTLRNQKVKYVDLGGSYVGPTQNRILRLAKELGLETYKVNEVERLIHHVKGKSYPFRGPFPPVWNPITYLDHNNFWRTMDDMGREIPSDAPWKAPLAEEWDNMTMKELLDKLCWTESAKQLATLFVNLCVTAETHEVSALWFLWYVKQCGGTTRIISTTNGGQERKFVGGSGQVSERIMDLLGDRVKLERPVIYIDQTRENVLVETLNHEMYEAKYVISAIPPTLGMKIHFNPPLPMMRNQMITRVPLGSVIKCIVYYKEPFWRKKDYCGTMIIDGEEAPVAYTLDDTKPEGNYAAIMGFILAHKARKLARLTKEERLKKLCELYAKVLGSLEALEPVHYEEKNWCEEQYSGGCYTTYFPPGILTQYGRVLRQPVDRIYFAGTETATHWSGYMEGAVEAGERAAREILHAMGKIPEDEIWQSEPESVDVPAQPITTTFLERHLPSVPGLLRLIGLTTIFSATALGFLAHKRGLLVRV
Assay: Determination of MAO isoforms activity (Amplex Red, p-tyramine), MAO-B
Format: biochemical
Details: bounds calculated taking the highest concentration studied (100 μM or 1 mM) as IC50
Marks after values point to notes of the source that are not given here.

{"COMPOUND": "O=c1c(CSC(=S)N2CCCC2)ccnn1Cc1ccccc1 [IIIc3]", "RESULT": ">2.9^b"}
{"COMPOUND": "O=c1c(CSC(=S)N2CCOCC2)ccnn1Cc1ccccc1 [IIIc5]", "RESULT": ">4.2^b"}
{"COMPOUND": "Cn1nc(CCCSC(=S)N2CCCC2)ccc1=O [Ia25]", "RESULT": ">1.5^b"}
{"COMPOUND": "Cn1nc(CCSC(=S)N2CCCCC2)ccc1=O [Ia15]", "RESULT": ">8.4^b"}

Value of S.I. Selectivity index hMAO-B = IC50 (hMAO-A)/IC50 (hMAO-B) reported for the compound CCN(CC)C(=S)SCc1cnn(Cc2ccccc2)c(=O)c1 [IIc2] is >2.3^b

Memo: O=c1cc(CSC(=S)N2CCCCC2)cnn1Cc1ccccc1 [IIc4] , reported S.I. Selectivity index hMAO-B = IC50 (hMAO-A)/IC50 (hMAO-B): >15^b
